system: HeLa; assay: Cytotoxicity in human HeLa cells incubated for 48 hrs by MTT assay; assay type: functional, cell-based
Listing of entries alongside the reported IC50.
Write down the numeric answer in µM and omit the unit.

Worked set:
• C=CCCCCCCCCC1=NNC2SCC(c3ccccc3)=NN12 (stereo not drawn) = 8.01
• CCCCCCC(O)C/C=C\CCCCCCCC1=NNC2SCC(c3ccccc3)=NN12 (stereo not drawn) = 8.83

We next turn to a different molecule, shown below.
Kindly note the recorded IC50 for CCCC/C=C\CCC(O)CCCCCCC1=NNC2SCC(c3ccccc3)=NN12 (stereo not drawn) , which is 6

* * *

Listing of entries alongside the reported IC50.
test system: Hep 3B2; test: Cytotoxicity in human Hep3B cells incubated for 48 hrs by MTT assay; format: functional, cell-based
Write down the numeric answer in µM and omit the unit.

• C=CCCCCCCCCc1n[nH]c(=S)o1 = 8.94
• CCCCCCC(O)C/C=C\CCCCCCCC1=NNC2SCC(c3ccccc3)=NN12 (stereo not given) = 6.5
• CCCC/C=C\CCC(O)CCCCCCC1=NNC2SCC(c3ccccc3)=NN12 (stereo not given) = 7.36
• C=CCCCCCCCCC1=NNC2SCC(c3ccccc3)=NN12 (stereo not given) = 7.4

We next turn to a different compound, shown below.
Kindly note the recorded IC50 for "C=CCCCCCCCCc1n[nH]c(=S)n1N" , which is 9.2
